These entries and their values trace back to ChEMBL document CHEMBL1615344.

test: Cerep Phospholipidosis assay (HepG2 cells); type: ADME, cell-based; conditions: human, HepG2 cells; read-out: Maximum test concentration that did not exhibit cytotoxicity
Binarize MNTC at 10 µM; below is Y, at or above is N.

| compound | category.label |
| --- | --- |
| CC(CCc1ccccc1)NCC(O)c1ccc(O)c(C(N)=O)c1 (stereo unspecified) | N |
| CCCC(CCC)C(=O)O | N |
| CN(C)CCC=C1c2ccccc2COc2ccccc21 [DOXEPIN] | N |
| C=C[C@H]1C[N@@]2CC[C@H]1C[C@@H]2[C@@H](O)c1ccnc2ccc(OC)cc12 | N |
| CC(=O)N1CCN(c2ccc(OCC3COC(Cn4ccnc4)(c4ccc(Cl)cc4Cl)O3)cc2)CC1 (stereo unspecified) | N |
| Nc1c(Br)cc(Br)cc1CN[C@H]1CC[C@H](O)CC1 | N |
| CNCCCC12CCC(c3ccccc31)c1ccccc12 | Y |
| CN(C)CCCN1c2ccccc2CCc2ccccc21 | Y |
| CC[C@H]1OC(=O)[C@H](C)[C@@H](O[C@H]2C[C@@](C)(OC)[C@@H](O)[C@H](C)O2)[C@H](C)[C@@H](O[C@@H]2O[C@H](C)C[C@H](N(C)C)[C@H]2O)[C@](C)(O)C[C@@H](C)C(=O)[C@H](C)[C@@H](O)[C@]1(C)O | N |
| CC(C)NCC(O)c1ccc(NS(C)(=O)=O)cc1 (stereo unspecified) | N |
| CCN(CC)CCOc1ccc2c(c1)C(=O)c1cc(OCCN(CC)CC)ccc1-2 | Y |
| Cc1cccc(CN2CCN(C(c3ccccc3)c3ccc(Cl)cc3)CC2)c1 (stereo unspecified) | N |
| CC1=CC(=O)c2ccccc2C1=O | Y |
| OCCOCCN1CCN(C(c2ccccc2)c2ccc(Cl)cc2)CC1 (stereo unspecified) [HYDROXYZINE] | N |
| CC(=O)Nc1ccc(O)cc1 | N |

---

system: Phospholipidosis; assay: Cerep Phospholipidosis assay (HepG2 cells); assay type: ADME, cell-based; conditions: human, hepg2
Binarize Phospholipidosis as % of positive control at 20%; below is label 1, at or above is label 0.

| molecule | category.label |
| --- | --- |
| CC(=O)Nc1ccc(O)cc1 | label 1 |
| OCCOCCN1CCN(C(c2ccccc2)c2ccc(Cl)cc2)CC1 (centres undefined) [HYDROXYZINE] | label 0 |
| CN(C)CCCN1c2ccccc2CCc2ccccc21 | label 1 |
| C1CCC(C(CC2CCCCN2)C2CCCCC2)CC1 (centres undefined) | label 0 |
| CC(C)NCC(O)c1ccc(NS(C)(=O)=O)cc1 (centres undefined) | label 1 |
| CN(C)CCC=C1c2ccccc2CCc2ccccc21 | label 0 |
| CCCC(CCC)C(=O)O | label 1 |
| CC(=O)N1CCN(c2ccc(OCC3COC(Cn4ccnc4)(c4ccc(Cl)cc4Cl)O3)cc2)CC1 (centres undefined) | label 0 |
| C=C[C@H]1C[N@@]2CC[C@H]1C[C@@H]2[C@@H](O)c1ccnc2ccc(OC)cc12 | label 1 |
| CCCCc1oc2ccccc2c1C(=O)c1cc(I)c(OCCN(CC)CC)c(I)c1 | label 0 |
| CNCCCC12CCC(c3ccccc31)c1ccccc12 | label 0 |
| Nc1c(Br)cc(Br)cc1CN[C@H]1CC[C@H](O)CC1 | label 0 |
| CC[C@H]1OC(=O)[C@H](C)[C@@H](O[C@H]2C[C@@](C)(OC)[C@@H](O)[C@H](C)O2)[C@H](C)[C@@H](O[C@@H]2O[C@H](C)C[C@H](N(C)C)[C@H]2O)[C@](C)(O)C[C@@H](C)C(=O)[C@H](C)[C@@H](O)[C@]1(C)O | label 0 |
| CN(C)CCCN1c2ccccc2Sc2ccc(Cl)cc21 | label 0 |
| CC(CCc1ccccc1)NCC(O)c1ccc(O)c(C(N)=O)c1 (centres undefined) | label 1 |
| O=C(CCCN1CCC(O)(c2ccc(Cl)cc2)CC1)c1ccc(F)cc1 | label 0 |
| CN[C@H]1CC[C@@H](c2ccc(Cl)c(Cl)c2)c2ccccc21 | label 0 |

---

assay: Cerep Phospholipidosis assay (HepG2 cells); assay type: ADME, cell-based; settings: human, HepG2 cells; read-out: Maximum test concentration that did not exhibit cytotoxicity
log10(MNTC) for assorted molecules
recorded.metric: log10(MNTC) (log10 of the value in µM)

| molecule | measured.value |
| --- | --- |
| O=C(CCCN1CCC(O)(c2ccc(Cl)cc2)CC1)c1ccc(F)cc1 [HALOPERIDOL] | 1.10 |
| CC[C@H]1OC(=O)[C@H](C)[C@@H](O[C@H]2C[C@@](C)(OC)[C@@H](O)[C@H](C)O2)[C@H](C)[C@@H](O[C@@H]2O[C@H](C)C[C@H](N(C)C)[C@H]2O)[C@](C)(O)C[C@@H](C)CN(C)[C@H](C)[C@@H](O)[C@]1(C)O [AZITHROMYCIN] | 1.40 |
| CCCCc1oc2ccccc2c1C(=O)c1cc(I)c(OCCN(CC)CC)c(I)c1 [AMIODARONE] | 0.80 |
| CNCCC(Oc1ccc(C(F)(F)F)cc1)c1ccccc1 (stereo not drawn) [FLUOXETINE] | 0.70 |
| CC(C)NCC(O)COc1cccc2ccccc12 (stereo not drawn) [PROPRANOLOL] | 1.40 |
| CCN(CC)CCOc1ccc(C(O)(Cc2ccc(Cl)cc2)c2ccc(C)cc2)cc1 (stereo not drawn) [TRIPARANOL] | 0.50 |
| CN(Cc1cc(Br)cc(Br)c1N)C1CCCCC1 [BROMHEXINE] | 1.70 |
| CN1CCN(C2=Nc3cc(Cl)ccc3Nc3ccccc32)CC1 [CLOZAPINE] | 1.10 |

---

MNTC for assorted compounds
assay: Cerep Phospholipidosis assay (HepG2 cells); type: ADME, cell-based; conditions: human, HepG2 cells; read-out: Maximum test concentration that did not exhibit cytotoxicity

| compound | value.units | MNTC |
| --- | --- | --- |
| NCC[C@H](O)C(=O)N[C@@H]1C[C@H](N)[C@@H](O[C@H]2O[C@H](CN)[C@@H](O)[C@H](O)[C@H]2O)[C@H](O)[C@H]1O[C@H]1O[C@H](CO)[C@@H](O)[C@H](N)[C@H]1O | µM | 25 |
| CC1COc2c(N3CCN(C)CC3)c(F)cc3c(=O)c(C(=O)O)cn1c23 (stereo not drawn) | µM | 50 |
| CN(C)CCC=C1c2ccccc2CCc2ccccc21 | µM | 20 |
| CN(C)CCCN1c2ccccc2Sc2ccc(Cl)cc21 | µM | 5 |
| CN(C)CCCC1(c2ccc(F)cc2)OCc2cc(C#N)ccc21 (stereo not drawn) | µM | 100 |
| CC/C(=C(\c1ccccc1)c1ccc(OCCN(C)C)cc1)c1ccccc1 | µM | 6.25 |
| C1CCC(C(CC2CCCCN2)C2CCCCC2)CC1 (stereo not drawn) | µM | 3.13 |
| CN[C@H]1CC[C@@H](c2ccc(Cl)c(Cl)c2)c2ccccc21 | µM | 3.13 |

---

system: Phospholipidosis; assay: Cerep Phospholipidosis assay (HepG2 cells); format: ADME, cell-based; details: human, hepg2
Binarize Phospholipidosis as % of positive control at 20%; below is yes (1), at or above is no (0).

| compound | category.label |
| --- | --- |
| CC/C(=C(\c1ccccc1)c1ccc(OCCN(C)C)cc1)c1ccccc1 | no (0) |
| CC(C)NCC(O)COc1cccc2ccccc12 (configuration not stated) | no (0) |
| CCN(CC)CCCC(C)Nc1ccnc2cc(Cl)ccc12 (configuration not stated) | no (0) |
| NCC[C@H](O)C(=O)N[C@@H]1C[C@H](N)[C@@H](O[C@H]2O[C@H](CN)[C@@H](O)[C@H](O)[C@H]2O)[C@H](O)[C@H]1O[C@H]1O[C@H](CO)[C@@H](O)[C@H](N)[C@H]1O | yes (1) |
| CC1=CC(=O)c2ccccc2C1=O | yes (1) |
| Cc1cccc(CN2CCN(C(c3ccccc3)c3ccc(Cl)cc3)CC2)c1 (configuration not stated) | yes (1) |
| CC[C@H]1OC(=O)[C@H](C)[C@@H](O[C@H]2C[C@@](C)(OC)[C@@H](O)[C@H](C)O2)[C@H](C)[C@@H](O[C@@H]2O[C@H](C)C[C@H](N(C)C)[C@H]2O)[C@](C)(O)C[C@@H](C)CN(C)[C@H](C)[C@@H](O)[C@]1(C)O | no (0) |
| CN1CCN(C2=Nc3cc(Cl)ccc3Nc3ccccc32)CC1 | yes (1) |
| CN(Cc1cc(Br)cc(Br)c1N)C1CCCCC1 | no (0) |
| CCN(CC)CCOc1ccc(C(O)(Cc2ccc(Cl)cc2)c2ccc(C)cc2)cc1 (configuration not stated) | no (0) |
| CC1COc2c(N3CCN(C)CC3)c(F)cc3c(=O)c(C(=O)O)cn1c23 (configuration not stated) | yes (1) |
| CN(C)CCC=C1c2ccccc2COc2ccccc21 [DOXEPIN] | no (0) |
